# Target Entity: Epidermal growth factor receptor (Homo sapiens)
# Sequence (P00533 whole entry, the tested form may be a part): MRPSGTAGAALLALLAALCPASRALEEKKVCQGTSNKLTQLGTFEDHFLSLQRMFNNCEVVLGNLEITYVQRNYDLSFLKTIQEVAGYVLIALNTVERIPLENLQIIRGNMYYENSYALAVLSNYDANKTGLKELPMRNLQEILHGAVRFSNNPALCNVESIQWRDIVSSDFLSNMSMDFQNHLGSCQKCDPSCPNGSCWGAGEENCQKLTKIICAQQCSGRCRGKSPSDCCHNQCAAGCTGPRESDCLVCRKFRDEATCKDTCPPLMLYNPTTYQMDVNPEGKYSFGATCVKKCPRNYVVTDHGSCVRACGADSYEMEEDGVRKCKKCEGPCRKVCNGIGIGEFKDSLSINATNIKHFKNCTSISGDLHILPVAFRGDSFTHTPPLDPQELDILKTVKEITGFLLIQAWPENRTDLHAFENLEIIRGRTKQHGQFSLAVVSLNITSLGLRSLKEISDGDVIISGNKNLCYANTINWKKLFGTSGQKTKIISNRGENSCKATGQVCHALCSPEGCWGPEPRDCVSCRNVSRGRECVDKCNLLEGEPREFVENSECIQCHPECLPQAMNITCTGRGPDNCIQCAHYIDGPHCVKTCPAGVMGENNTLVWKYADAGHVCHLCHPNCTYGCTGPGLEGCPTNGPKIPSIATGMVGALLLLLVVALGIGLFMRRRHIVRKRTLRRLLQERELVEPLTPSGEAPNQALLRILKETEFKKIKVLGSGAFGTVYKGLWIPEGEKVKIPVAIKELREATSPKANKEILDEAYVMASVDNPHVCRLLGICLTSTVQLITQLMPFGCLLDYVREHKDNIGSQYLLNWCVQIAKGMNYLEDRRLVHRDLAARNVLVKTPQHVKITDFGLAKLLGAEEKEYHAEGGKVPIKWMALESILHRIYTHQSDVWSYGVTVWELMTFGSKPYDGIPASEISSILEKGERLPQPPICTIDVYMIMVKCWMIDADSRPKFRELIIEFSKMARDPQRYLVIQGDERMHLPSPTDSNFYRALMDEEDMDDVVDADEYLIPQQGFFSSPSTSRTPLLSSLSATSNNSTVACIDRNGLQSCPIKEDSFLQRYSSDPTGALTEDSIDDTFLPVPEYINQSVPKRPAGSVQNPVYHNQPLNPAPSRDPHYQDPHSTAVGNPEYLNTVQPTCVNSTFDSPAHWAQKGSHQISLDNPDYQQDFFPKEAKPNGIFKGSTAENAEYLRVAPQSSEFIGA
# Protocol Notes: Inhibition of recombinant human N-terminal GST-tagged EGFR (669 to 1210 residues) expressed in Sf21 insect cells using kinase substrate 22 incubated for 30 mins in presence of ATP
The molecules listed here are annotated with their IC50.

| Given Smiles | IC50 |
| --- | --- |
| C=CC(=O)N1C[C@@H]2C[C@H]1CN2C(=O)Oc1cc2c(Nc3ccc(Cl)c(Cl)c3F)ncnc2cc1OC | 0.3 nM |
| C#CC(=O)N1CCN(C(=O)Oc2cc3c(Nc4ccc(Cl)c(Cl)c4F)ncnc3cc2OC)[C@H](C)C1 | 0.32 nM |
| C=CC(=O)N1CCN(C(=O)Oc2cc3c(Nc4cccc(Cl)c4F)ncnc3cc2OC)[C@H](C)C1 | 0.34 nM |
| C=CC(=O)Oc1cc2c(Nc3ccc(Cl)c(Cl)c3F)ncnc2cc1OC | 0.54 nM |

Now look at this entry.
Query block: State the recorded IC50 for this entry: C=C(C(=O)N1CCN(C(=O)Oc2cc3c(Nc4ccc(Cl)c(Cl)c4F)ncnc3cc2OC)[C@H](C)C1)C(F)(F)F
Result block: 0.38 nM

Reference for the values: ChEMBL document CHEMBL5143650
